# credit: the MegaScale stability set (Tsuboyama et al. 2023)

Listed here: items and their measured folding stability dG.
B1: HHH_rd1_0493 (parent)
chain: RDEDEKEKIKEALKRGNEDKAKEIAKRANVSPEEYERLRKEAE

variants of: B1; experiment: folding stability dG (cDNA display proteolysis); higher = more stable; settings: PBS, room temperature

Mutation key	folding stability dG (kcal/mol)
V30S	0.63
K14R	3.32
P32W	2.92
V30I	3.41
N17I	1.54
I9T	0.61
R37Q	2.63
E5C	2.42
E33H	2.03
I24S	0.921
K20F	2.98
N17D	3.78
N29Y	1.9
E34V	1.81
R1C	2.64
P32C	2.07
I9N	0.856
D19I	2.95
A25P	0.533
Y35D	0.022
N29C	1.83
K40P	0.577
